method notes: in vivo
Parameters: species or system mice
condition context: male, NOD.Cg-Rag1tm1Mom Il2rgtm1Wjl/SzJ (NRG), mouse, iv, total radioactivity, Biodistribution: Brain
Where a SMILES comes first, the peptide text is derived from it. Bridges are numbered along the chain shown (N, C = ends). Side-chain parts run from the residue outwards. [ ]: non-standard residue; d: D form. The star is where a group is joined. X4 = O=C(O)CN1CCN(CC(=O)O)CCN(CC(=O)N[C@@H](CS(=O)(=O)O)C(=O)NCCCC[C@H](NC(=O)CNC(=O)CCCc2ccc(Cl)cc2)C(=O)*)CCN(CC(=O)O)CC1; X3 = O=C(O)CN1CCN(CC(=O)O)CCN(CC(=O)N[C@@H](CS(=O)(=O)O)C(=O)N[C@@H](CCCCNC(=O)CCCc2ccc(Br)cc2)C(=O)*)CCN(CC(=O)O)CC1; X5 = O=C(O)CN1CCN(CC(=O)O)CCN(CC(=O)N[C@@H](CS(=O)(=O)O)C(=O)N[C@@H](CCCCNC(=O)CCCc2ccc(Cl)cc2)C(=O)*)CCN(CC(=O)O)CC1; X1 = O=C(O)CN1CCN(CC(=O)O)CCN(CC(=O)N[C@@H](CS(=O)(=O)O)C(=O)N[C@@H](CCCCNC(=O)CCCc2ccc(I)cc2)C(=O)*)CCN(CC(=O)O)CC1; X6 = COc1ccc(CCCC(=O)NCCCC[C@H](NC(=O)[C@H](CS(=O)(=O)O)NC(=O)CN2CCN(CC(=O)O)CCN(CC(=O)O)CCN(CC(=O)O)CC2)C(=O)*)cc1; X7 = COc1ccc(CCCC(=O)NCCCC[C@H](NC(=O)CN2CCN(CC(=O)O)CCN(CC(=O)O)CCN(CC(=O)O)CC2)C(=O)*)cc1; DOTA = O=C(O)CN1CCN(CC(=O)O)CCN(CC(=O)*)CCN(CC(=O)O)CC1; NMeLys(iPr) = CN[C@@H](CCCCNC(C)C)C(=O)O; 2Nal = N[C@@H](Cc1ccc2ccccc2c1)C(=O)O; Lys(iPr) = CC(C)NCCCC[C@H](N)C(=O)O; Cya = N[C@@H](CS(=O)(=O)O)C(=O)O
Friendly reminder: tissue uptake at 1 h below 0.03 %ID/g is YES, at or above is NO.

- compound: "COc1ccc(CCCC(=O)NCCCC[C@H](NC(=O)[C@H](CS(=O)(=O)O)NC(=O)CN2CCN(CC(=O)O)CCN(CC(=O)O)CCN(CC(=O)O)CC2)C(=O)NCCCC[C@@H]2NC(=O)CC[C@H](C(=O)N[C@@H](CCCCNC(C)C)C(N)=O)NC(=O)[C@@H](C)NC(=O)[C@H](Cc3ccc4ccccc4c3)NC(=O)[C@@H](CCCNC(=N)N)NC(=O)[C@H](CCCCNC(C)C)NC(=O)[C@H](Cc3ccc(O)cc3)NC2=O)cc1 [[^68Ga]Ga-BL34L7, metal not drawn] (K(X6)Y[Lys(iPr)][dR][2Nal][dA][dE][Lys(iPr)]-NH2; lactam N-7)"
  cat: "NO"
- compound: "COc1ccc(CCCC(=O)NCCCC[C@H](NC(=O)CN2CCN(CC(=O)O)CCN(CC(=O)O)CCN(CC(=O)O)CC2)C(=O)N[C@@H](CS(=O)(=O)O)C(=O)NCCCC[C@@H]2NC(=O)CC[C@H](C(=O)N[C@@H](CCCCNC(C)C)C(N)=O)NC(=O)[C@@H](C)NC(=O)[C@H](Cc3ccc4ccccc4c3)NC(=O)[C@@H](CCCNC(=N)N)NC(=O)[C@H](CCCCNC(C)C)NC(=O)[C@H](Cc3ccc(O)cc3)NC2=O)cc1 [[68Ga]Ga-BL34L6, metal not drawn] (K([Cya-X7])Y[Lys(iPr)][dR][2Nal][dA][dE][Lys(iPr)]-NH2; lactam N-7)"
  cat: "YES"
- compound: "CC(C)NCCCC[C@H](NC(=O)[C@H]1CCC(=O)N[C@@H](CCCCNC(=O)[C@H](CCCCNC(=O)CCCc2ccc(Cl)cc2)NC(=O)[C@H](CS(=O)(=O)O)NC(=O)CN2CCN(CC(=O)O)CCN(CC(=O)O)CCN(CC(=O)O)CC2)C(=O)N[C@@H](Cc2ccc(O)cc2)C(=O)N[C@@H](CCCCNC(C)C)C(=O)N[C@H](CCCNC(=N)N)C(=O)N[C@@H](Cc2ccc3ccccc3c2)C(=O)N[C@H](C)C(=O)N1)C(N)=O [[^68Ga]Ga-BL34L16, metal not drawn] (K(X5)Y[Lys(iPr)][dR][2Nal][dA][dE][Lys(iPr)]-NH2; lactam N-7)"
  cat: "NO"
- compound: "CC(C)NCCCC[C@H](NC(=O)[C@H]1CCC(=O)N[C@@H](CCCCNC(=O)[C@H](CCCCNC(=O)[C@H](CS(=O)(=O)O)NC(=O)CN2CCN(CC(=O)O)CCN(CC(=O)O)CCN(CC(=O)O)CC2)NC(=O)CNC(=O)CCCc2ccc(Cl)cc2)C(=O)N[C@@H](Cc2ccc(O)cc2)C(=O)N[C@@H](CCCCNC(C)C)C(=O)N[C@H](CCCNC(=N)N)C(=O)N[C@@H](Cc2ccc3ccccc3c2)C(=O)N[C@H](C)C(=O)N1)C(N)=O [[68Ga]Ga-BL34T1, metal not drawn] (K(X4)Y[Lys(iPr)][dR][2Nal][dA][dE][Lys(iPr)]-NH2; lactam N-7)"
  cat: "NO"
- compound: "CC(C)NCCCC[C@H](NC(=O)[C@H]1CCC(=O)N[C@@H](CCCCNC(=O)[C@H](CCCCNC(=O)CCCc2ccc(I)cc2)NC(=O)[C@H](CS(=O)(=O)O)NC(=O)CN2CCN(CC(=O)O)CCN(CC(=O)O)CCN(CC(=O)O)CC2)C(=O)N[C@@H](Cc2ccc(O)cc2)C(=O)N[C@@H](CCCCNC(C)C)C(=O)N[C@H](CCCNC(=N)N)C(=O)N[C@@H](Cc2ccc3ccccc3c2)C(=O)N[C@H](C)C(=O)N1)C(N)=O [[^68Ga]Ga-BL34L11, metal not drawn] (K(X1)Y[Lys(iPr)][dR][2Nal][dA][dE][Lys(iPr)]-NH2; lactam N-7)"
  cat: "NO"
- compound: "CC(C)NCCCC[C@H](NC(=O)[C@H]1CCC(=O)N[C@@H](CCCCNC(=O)[C@H](CCCCNC(=O)CCCc2ccc(Br)cc2)NC(=O)[C@H](CS(=O)(=O)O)NC(=O)CN2CCN(CC(=O)O)CCN(CC(=O)O)CCN(CC(=O)O)CC2)C(=O)N[C@@H](Cc2ccc(O)cc2)C(=O)N[C@@H](CCCCNC(C)C)C(=O)N[C@H](CCCNC(=N)N)C(=O)N[C@@H](Cc2ccc3ccccc3c2)C(=O)N[C@H](C)C(=O)N1)C(N)=O [[^177Lu]Lu-BL34L20, metal not drawn] (K(X3)Y[Lys(iPr)][dR][2Nal][dA][dE][Lys(iPr)]-NH2; lactam N-7)"
  cat: "NO"
- compound: "CC(C)NCCCC[C@H](NC(=O)[C@H]1CCC(=O)N[C@@H](CCCCNC(=O)[C@H](CS(=O)(=O)O)NC(=O)CN2CCN(CC(=O)O)CCN(CC(=O)O)CCN(CC(=O)O)CC2)C(=O)N[C@@H](Cc2ccc(O)cc2)C(=O)N(C)[C@@H](CCCCNC(C)C)C(=O)N[C@H](CCCNC(=N)N)C(=O)N[C@@H](Cc2ccc3ccccc3c2)C(=O)N[C@H](C)C(=O)N1)C(N)=O [[^68Ga]Ga-BL34N1, metal not drawn] (K([Cya-DOTA])Y[NMeLys(iPr)][dR][2Nal][dA][dE][Lys(iPr)]-NH2; lactam N-7)"
  cat: "YES"
